Target: human NTCP (Homo sapiens, UniProt Q14973)
Sequence (Q14973 1-349): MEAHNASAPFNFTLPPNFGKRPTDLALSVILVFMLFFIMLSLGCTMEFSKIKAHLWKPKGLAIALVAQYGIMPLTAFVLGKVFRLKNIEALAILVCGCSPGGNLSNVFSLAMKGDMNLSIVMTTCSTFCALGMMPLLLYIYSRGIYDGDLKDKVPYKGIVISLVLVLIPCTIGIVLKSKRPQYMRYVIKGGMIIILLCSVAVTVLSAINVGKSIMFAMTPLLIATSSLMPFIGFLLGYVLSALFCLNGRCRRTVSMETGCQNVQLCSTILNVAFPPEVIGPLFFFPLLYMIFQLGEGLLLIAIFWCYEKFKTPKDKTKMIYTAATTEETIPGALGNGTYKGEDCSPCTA
Assay: Inhibition of taurocholate uptake into NTCP-HEK293 cells
Format: cell-based
Conditions: listed as Lithocholate Glycine
property: pKi
Hey, just a heads up that pKi is the negative log base 10 of the concentration in molar.

Given C[C@H](CCC(=O)NCC(=O)O)[C@H]1CC[C@H]2[C@@H]3CC[C@@H]4C[C@H](O)CC[C@]4(C)[C@H]3CC[C@]12C [GLCA, glycolithocholate] , state its recorded pKi.
5.14

---

System: NTCP-HEK293 cells
Assay: Passive uptake in the absence of sodium
Consider the following compounds; for each one, report its Pp (passive permeability).

Give NTCP-HEK293 cells Pp (passive permeability) for C[C@H](CCC(=O)O)[C@H]1CC[C@H]2[C@@H]3[C@@H](O)C[C@@H]4C[C@H](O)CC[C@]4(C)[C@H]3CC[C@]12C [UDCA, ursodeoxycholate]
26.3 ± 1.1 cm/s ×10^6

Same question, "CCCCC1=NC2(CCCC2)C(=O)N1Cc1ccc(-c2ccccc2-c2nnn[nH]2)cc1" this time
6.27 ± 0.14 cm/s ×10^6

Same question, "CC(C)[C@H](NC(=O)CC[C@@H](C)[C@H]1CC[C@H]2[C@@H]3[C@H](O)C[C@@H]4C[C@H](O)CC[C@]4(C)[C@H]3CC[C@]12C)C(=O)O" this time
1.47 ± 0.09 cm/s ×10^6

Same question, "C[C@H](CCC(=O)N[C@@H](CCC(=O)OCc1ccccc1)C(=O)O)[C@H]1CC[C@H]2[C@@H]3[C@H](O)C[C@@H]4C[C@H](O)CC[C@]4(C)[C@H]3CC[C@]12C" this time
7.70 ± 0.23 cm/s ×10^6

Same question, C[C@H](CCC(=O)NCC(=O)O)[C@H]1CC[C@H]2[C@@H]3[C@H](O)C[C@@H]4C[C@H](O)CC[C@]4(C)[C@H]3CC[C@]12C [GCDCA, glycochenodeoxycholate] this time
2.17 ± 0.32 cm/s ×10^6

Same question, C[C@H](CCC(=O)O)[C@H]1CC[C@H]2[C@@H]3[C@H](O)C[C@@H]4C[C@H](O)CC[C@]4(C)[C@H]3C[C@H](O)[C@]12C [CA, cholate] this time
4.56 ± 0.06 cm/s ×10^6

Same question, "CC(C)c1nc(N(C)S(C)(=O)=O)nc(-c2ccc(F)cc2)c1/C=C/[C@@H](O)C[C@@H](O)CC(=O)O" this time
0.330 ± 0.006 cm/s ×10^6

Same question, C[C@H](CCC(=O)O)[C@H]1CC[C@H]2[C@@H]3CC[C@@H]4C[C@H](O)CC[C@]4(C)[C@H]3CC[C@]12C [LCA, lithocholate] this time
33.9 ± 3.3 cm/s ×10^6

Same question, C[C@H](CCC(=O)NCCS(=O)(=O)O)[C@H]1CC[C@H]2[C@@H]3[C@H](O)C[C@@H]4C[C@H](O)CC[C@]4(C)[C@H]3CC[C@]12C [TCDCA, taurochenodeoxycholate] this time
4.35 ± 0.70 cm/s ×10^6

Same question, C[C@H](CCC(=O)NCCS(=O)(=O)O)[C@H]1CC[C@H]2[C@@H]3CC[C@@H]4C[C@H](O)CC[C@]4(C)[C@H]3CC[C@]12C [TLCA, taurolithocholate] this time
3.37 ± 0.63 cm/s ×10^6

Same question, C[C@H](CCC(=O)O)[C@H]1CC[C@H]2[C@@H]3[C@H](O)C[C@@H]4C[C@H](O)CC[C@]4(C)[C@H]3CC[C@]12C [CDCA, chenodeoxycholate] this time
27.6 ± 1.5 cm/s ×10^6

Same question, C[C@H](CCC(=O)NCC(=O)O)[C@H]1CC[C@H]2[C@@H]3CC[C@@H]4C[C@H](O)CC[C@]4(C)[C@H]3CC[C@]12C [GLCA, glycolithocholate] this time
6.67 ± 0.95 cm/s ×10^6

Same question, "CCCCc1nc(Cl)c(CO)n1Cc1ccc(-c2ccccc2-c2nn[nH]n2)cc1" this time
1.48 ± 0.12 cm/s ×10^6
